parameter: melting point

> print(dat)
                                    molecule         result
 1         CCOC(=O)CCCCCOc1ccc(Nc2ccncc2)cc1  104 to 106 °C
 2                      c1cc2cc3cnccc3cc2cn1         174 °C
 3            Brc1c(OCc2ccccc2)cccc1C1OCCCO1    73 to 74 °C
 4  CCN(CC)C(=O)n1c(C(=O)C(C)(C)c2ccc(Cl)cc2)cc2cc(OC)ccc21  172 to 175 °C
 5                 Cc1cccc(-n2nnc3cccnc32)n1  144 to 145 °C
 6      O=C(O)c1cc(I)cc2c(=O)c3ccccc3[nH]c12       > 400 °C
 7  COc1cccc(CC(CS)C(=O)Nc2c[nH]c(C(=O)O)c2)c1 (stereo unspecified)  153 to 158 °C
 8  Cc1nn(-c2ccccn2)c2[nH]c3cc(F)c(F)cc3c(=O)c12  274 to 277 °C
 9               O=C(Nc1ccc(O)cc1)OCc1ccccc1  153 to 154 °C
10  NS(=O)(=O)c1cccc(-c2cccc(-c3nc(-c4ccc(Cl)c(Cl)c4)cc(C(F)(F)F)n3)c2)c1         241 °C
11  COC(=O)C(O)c1ccccc1[N+](=O)[O-] (stereo unspecified)    69 to 71 °C

###

parameter: melting point

> print(dat)
                                   compound      parameter         result
1  Cc1ccc2cccc(OCc3c(Cl)ccc(S(=O)(=O)N(C)CCCCCC(=O)O)c3Cl)c2n1  melting point   98 to 102 °C
2  COc1cccc(OC(=O)c2ncn3c2[C@@H]2CCCN2C(=O)c2c(Cl)cccc2-3)c1  melting point  184 to 185 °C
3  CC1=CC(OC(=O)C=Cc2ccc(N)cc2)C(O)C(C)(C)CC1=O (stereo not given)  melting point    72 to 74 °C
4  CCOC(=O)[C@@H](CC(=O)c1ccc2ccccc2c1)NC(C)=O  melting point    94 to 95 °C
5  CCCc1nn(-c2ccc(C(F)(F)F)cn2)cc1CCCOc1cccc(C(C)(C)C(=O)O)c1  melting point    82 to 83 °C

###

Examples of compounds with documented melting point follow.
parameter: melting point

> print(dat)
                               line.notation           result
 1    NS(=O)(=O)c1cc(C(F)(F)F)cc(C(F)(F)F)c1    183 to 185 °C
 2    Oc1ccc(-c2nc3ccccc3nc2-c2ccc(O)cc2)cc1    336 to 338 °C
 3  NS(=O)(=O)c1ccc(-c2c(-c3cccc(F)c3)noc2CC(=O)O)cc1    242 to 250 °C
 4   COc1ccc(Nc2nc(Cl)cc(NC3CCCCCC3)n2)cc1Cl      74 to 76 °C
 5  CC(C)Cn1c(=O)n(C)c(=O)c2c(SCCCC(N)=O)n(Cc3cccc4ccccc34)cc21    162 to 165 °C
 6           COC(=O)CCC#Cc1ccc(C(F)(F)F)cc1N            42 °C
 7  CS(=O)(=O)NC(=O)C1(CCCCCCCCCCCCC2(C(=O)O)CC2)CC1  97.5 to 99.4 °C
 8      O=C1c2ccccc2C(=O)N1Cc1cc2ccccc2[nH]1    215 to 220 °C
 9           CS(=O)(=O)Nc1cccc(SCc2ccccc2)n1    123 to 125 °C
10  COc1ccc(-c2nc(N)ncc2-c2ccc(=O)n(C)n2)cc1           259 °C
